- test system: IGF 3P (Homo sapiens, UniProt P08069)
- Construct: human IGF1R kinase domain residues M954-C1367; made in house; host or cells: baculovirus expression (insect cells)
- Sequence (P08069 954-1367): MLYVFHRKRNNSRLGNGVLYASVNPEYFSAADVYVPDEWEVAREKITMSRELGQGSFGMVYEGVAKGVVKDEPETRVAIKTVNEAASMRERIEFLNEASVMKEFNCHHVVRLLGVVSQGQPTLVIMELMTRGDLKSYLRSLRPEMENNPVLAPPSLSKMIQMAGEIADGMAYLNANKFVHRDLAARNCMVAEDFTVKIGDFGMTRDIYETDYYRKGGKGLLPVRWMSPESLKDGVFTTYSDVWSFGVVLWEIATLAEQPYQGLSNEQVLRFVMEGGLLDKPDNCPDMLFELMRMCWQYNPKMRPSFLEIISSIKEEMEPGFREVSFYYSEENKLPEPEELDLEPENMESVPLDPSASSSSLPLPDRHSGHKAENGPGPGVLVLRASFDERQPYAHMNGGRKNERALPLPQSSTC
- assay explanation: IGF1R kinase assay (LCCA), IGF 3P
- Format: biochemical
- test conditions: IGF1R kinase LCCA assay
pIC50: −log10 of the molar value.
Reported pIC50 values for the following compounds.

Known pIC50 results, listed for orientation:
CN1CCC(Oc2cc(Nc3cc(C4CC4)[nH]n3)nc(NCc3cc(-c4ccccc4)no3)n2)C1 (centres unmarked) : > 7.30
Brc1cnc(Nc2ccc(N3CCOCC3)cc2)nc1Nc1ccc2c(c1)CNCC2 : > 7.30
Clc1cccc(CCNc2ncc(Br)c(Nc3cc(C4CC4)n[nH]3)n2)c1 : 5.30 to 6.30
Cc1cc(Nc2nc(NCc3cc(-c4ccccc4)no3)ncc2Br)no1 : < 5.30
Cc1ccc(C(C)C)cc1Nc1ncc(Br)c(Nc2cc(C3CC3)n[nH]2)n1 : 5.30 to 6.30
COc1ccc(-c2cc(CNc3ncc(Br)c(Nc4cc(C5CC5)[nH]n4)n3)on2)cc1 : < 5.30
Cc1cc(Nc2cc(C3CC3)n[nH]2)nc(NCc2nc(C(=O)NCCc3ccccc3F)cs2)n1 : 5.30 to 6.30
O=C(Nc1ccccc1)c1nc(Nc2ccccc2Cl)nc(Nc2cc(C3CC3)n[nH]2)c1[N+](=O)[O-] : < 5.30

### Prompt # lookup: pIC50 of `CN1CCN(CCNc2cc(Nc3cc(C4CC4)[nH]n3)nc(NCc3cc(-c4ccccc4)no3)n2)CC1`
### Response > 7.30
